# Measured target: furin, P09958;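 note: purified furin at 1:10 enzyme:substrate in 50 mM HEPES pH 7.5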
# Sequence (P09958 whole entry): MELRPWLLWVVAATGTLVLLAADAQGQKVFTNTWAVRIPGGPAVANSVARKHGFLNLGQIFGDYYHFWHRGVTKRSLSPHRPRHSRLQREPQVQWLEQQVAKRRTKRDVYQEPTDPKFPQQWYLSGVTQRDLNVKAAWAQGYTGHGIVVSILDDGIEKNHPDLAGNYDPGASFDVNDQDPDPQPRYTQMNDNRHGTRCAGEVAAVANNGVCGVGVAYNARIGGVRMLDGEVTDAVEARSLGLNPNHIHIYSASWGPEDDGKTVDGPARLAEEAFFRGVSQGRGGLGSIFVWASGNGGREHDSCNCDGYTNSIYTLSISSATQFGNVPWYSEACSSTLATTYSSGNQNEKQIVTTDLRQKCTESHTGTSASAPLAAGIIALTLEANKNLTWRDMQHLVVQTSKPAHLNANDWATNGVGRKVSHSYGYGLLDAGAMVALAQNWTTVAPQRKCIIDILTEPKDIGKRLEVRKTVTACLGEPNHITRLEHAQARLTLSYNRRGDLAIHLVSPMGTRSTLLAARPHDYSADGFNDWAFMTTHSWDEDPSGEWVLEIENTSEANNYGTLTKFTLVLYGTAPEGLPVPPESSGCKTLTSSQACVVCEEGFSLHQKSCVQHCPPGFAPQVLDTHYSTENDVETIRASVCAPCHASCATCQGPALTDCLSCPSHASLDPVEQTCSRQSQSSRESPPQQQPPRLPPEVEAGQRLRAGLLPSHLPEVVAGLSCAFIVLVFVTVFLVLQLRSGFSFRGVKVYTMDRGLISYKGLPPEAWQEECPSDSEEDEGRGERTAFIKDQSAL
# Measurement notes: furin cleavage Z-score vs untreated control; higher = more cleavage, active = 3.5 or more, inactive = 1 or less, 8 variable residues between constant flanks
# Condition description: 15 min
This is one part of the list. How many sequences the whole screen found active is unknown.
Could you please report measured furin cleavage Z-score for the items listed next?
Kindly provide the number alone.

Entry CARRRRNVHDAGNASASA [FS-2375] — recorded furin cleavage Z-score = 5.47

# sequence CAGLVPRGSGAGNASASA [TR8] ; its furin cleavage Z-score = -1.44

// CAVVLTESTLAGNASASA [HC1327] : furin cleavage Z-score value = 0.145

Reported furin cleavage Z-score ( CAMVCCSMSYAGNASASA [HC1986] ) = 1.46

Measured furin cleavage Z-score of CARKQRKKKAAGNASASA [FS-1262] : 1.6

For reference, reported furin cleavage Z-score for CARRFRPRRFAGNASASA [FS-1072] stands at 10.6

Kindly note the recorded furin cleavage Z-score for CASTPCSAHMAGNASASA [HC2566] , which is 0.0563

get_value(item= CALHQRVRRFAGNASASA [FS-820] , readout=furin cleavage Z-score) returns 10.6

// field: furin cleavage Z-score; key: CARSQPRGRRAGNASASA [HC188] ; value = 5.3

Form field furin cleavage Z-score, entry CARRFRPRRSAGNASASA [FS-1073] : 9.93

The measured furin cleavage Z-score associated with CASPRGSRPSAGNASASA [HC210] reads 0.149

The recorded furin cleavage Z-score for CAEVPCHGPSAGNASASA [HC2376] is 0.46

furin cleavage Z-score reading for CARVSRLAGRAGNASASA [FS-3126] : -0.0593

CAMSMRVRRHAGNASASA [FS-945] has a reported furin cleavage Z-score of 10.3

Recorded result, CAAAFRFKRKAGNASASA [FS-1109] , furin cleavage Z-score: 11.5

In plain terms, CARVSRSVRKAGNASASA [FS-293] has a documented furin cleavage Z-score of 4.8

The sequence listed as CARRRRLLQQAGNASASA [FS-3167] shows furin cleavage Z-score equal to -0.514

Item: CAFSQRRKRRAGNASASA [FS-775] | furin cleavage Z-score: 5.92

Record CAEKVVCCSMAGNASASA [HC2134] . Reported furin cleavage Z-score: 0.357

Reported furin cleavage Z-score for CARQKRSIVVAGNASASA [FS-2507] was 9.33

So, CASPNRSRRHAGNASASA [FS-300] ? Its furin cleavage Z-score was 10.7

Reported furin cleavage Z-score of CARRRRFSRTAGNASASA [FS-1482] : 11.9

# furin cleavage Z-score of CALRKRRKRKAGNASASA [FS-1030] = 11.4

Query CARQIRYSVPAGNASASA [FS-1767] yields furin cleavage Z-score of 0.942

Quick note, furin cleavage Z-score for CARRRREYWQAGNASASA [FS-2077] landed at 2.17

// field: furin cleavage Z-score; key: CARQKRIIGGAGNASASA [FS-2754] ; value = -0.537

// recorded furin cleavage Z-score for CARFGRFWKKAGNASASA [FS-2921] : 0.759

Recorded furin cleavage Z-score (sequence CAWLKRRKRAAGNASASA [FS-1181] ): 10.8

For this sequence ( CAEVVTSTWRAGNASASA [HC2253] ), measured furin cleavage Z-score is 0.48

get_value(item= CARQKREIDVAGNASASA [FS-3035] , readout=furin cleavage Z-score) returns 12.7
